TGT: T1, chimeric cynomolgus/human MAdCAM (cynomolgus; human, UniProt Q13477 226-382, limits assumed)
T1 sequence: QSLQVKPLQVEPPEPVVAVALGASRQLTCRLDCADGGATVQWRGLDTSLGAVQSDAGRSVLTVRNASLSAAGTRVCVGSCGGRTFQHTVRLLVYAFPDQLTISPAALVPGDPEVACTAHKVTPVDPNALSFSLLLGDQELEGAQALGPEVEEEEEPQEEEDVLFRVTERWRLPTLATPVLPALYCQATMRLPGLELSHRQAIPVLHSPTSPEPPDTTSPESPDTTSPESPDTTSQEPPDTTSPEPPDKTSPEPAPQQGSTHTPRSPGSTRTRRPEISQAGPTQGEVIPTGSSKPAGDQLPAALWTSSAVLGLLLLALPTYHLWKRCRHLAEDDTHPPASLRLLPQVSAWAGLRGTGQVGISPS
MEASUREMENT NOTES: cell-based or functional assay
MEASURED PROPERTY: Functional IC50, cynomolgus/human MAdCAM-CHO/JY adhesion assay (mg/L)

[
  {
    "BINDER": "anti-MAdCAM monoclonal antibody 6.34.2 (antibody, human IgG4, kappa, V domains shown, human IgG4 kappa from hybridoma 6.34.2) VH: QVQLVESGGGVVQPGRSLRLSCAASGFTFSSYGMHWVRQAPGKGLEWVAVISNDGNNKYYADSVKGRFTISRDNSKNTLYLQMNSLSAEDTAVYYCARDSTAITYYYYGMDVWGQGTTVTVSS VL: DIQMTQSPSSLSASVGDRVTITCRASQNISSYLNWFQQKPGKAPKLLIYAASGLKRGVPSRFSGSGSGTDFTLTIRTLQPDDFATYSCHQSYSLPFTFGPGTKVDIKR",
    "RESULT NUMBER": 0.47
  },
  {
    "BINDER": "anti-MAdCAM monoclonal antibody 6.77.1 (antibody, human IgG4, kappa, V domains shown, human IgG4 kappa from hybridoma 6.77.1) VH: EVQLVESGGGLVKPGGSLRLSCAASGFTFSSYSMNWVRQAPGKGLEWVSSISSSSSYIYYADSVKGRFTISRDNAKNSLYLQMNSLRAEDTAVYYCARDGYSSGWSYYYYYGMDVWGQGTTVTVSS VL: DIVMTQTPLSLSVTPGQPASISCNSSQSLLLSDGKTYLNWYLQKPGQPPQLLIYEVSNRFSGVPDRFSGSGSGTDFTLKISRVEAEDVGVYSCMQSIQLMCSFGQGTKLEIKR",
    "RESULT NUMBER": 0.64
  },
  {
    "BINDER": "anti-MAdCAM monoclonal antibody 7.26.4 (antibody, human IgG2, kappa, V domains shown, human IgG2 kappa from hybridoma 7.26.4) VH: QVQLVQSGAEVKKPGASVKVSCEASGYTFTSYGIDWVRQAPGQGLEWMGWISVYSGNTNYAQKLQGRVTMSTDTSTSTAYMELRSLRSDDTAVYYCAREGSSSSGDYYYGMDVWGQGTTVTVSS VL: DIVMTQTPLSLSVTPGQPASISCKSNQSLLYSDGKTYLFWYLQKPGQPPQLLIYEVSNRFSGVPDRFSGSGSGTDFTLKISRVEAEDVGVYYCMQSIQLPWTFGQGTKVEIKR",
    "RESULT NUMBER": 0.96
  },
  {
    "BINDER": "anti-MAdCAM monoclonal antibody 6.14.2 (antibody, human IgG4, kappa, V domains shown, human IgG4 kappa from hybridoma 6.14.2) VH: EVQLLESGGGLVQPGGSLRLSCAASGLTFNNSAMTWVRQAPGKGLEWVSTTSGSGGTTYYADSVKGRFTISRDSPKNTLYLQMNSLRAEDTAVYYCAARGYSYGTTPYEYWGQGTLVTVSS VL: DIQMTQSPSSLSASVGDRVTITCRASRSISSYLNWYQQKPGKAPKVLIFFVSSLQSGVPSRFSGSGSGTDFTLTISSLQPEDFATYYCQQNYIPPITFGQGTRLEIRR",
    "RESULT NUMBER": 0.53
  },
  {
    "BINDER": "anti-MAdCAM monoclonal antibody 6.22.2 (antibody, human IgG4, kappa, V domains shown, human IgG4 kappa from hybridoma 6.22.2) VH: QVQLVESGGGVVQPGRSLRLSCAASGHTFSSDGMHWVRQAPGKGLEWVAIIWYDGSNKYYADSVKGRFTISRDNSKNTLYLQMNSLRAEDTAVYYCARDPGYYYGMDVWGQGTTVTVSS VL: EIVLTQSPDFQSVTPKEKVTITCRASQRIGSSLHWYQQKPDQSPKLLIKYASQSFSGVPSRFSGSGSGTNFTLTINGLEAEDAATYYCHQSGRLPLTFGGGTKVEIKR",
    "RESULT NUMBER": 0.83
  },
  {
    "BINDER": "anti-MAdCAM monoclonal antibody 9.8.2 (antibody, human IgG4, kappa, V domains shown, human IgG4 kappa from hybridoma 9.8.2) VH: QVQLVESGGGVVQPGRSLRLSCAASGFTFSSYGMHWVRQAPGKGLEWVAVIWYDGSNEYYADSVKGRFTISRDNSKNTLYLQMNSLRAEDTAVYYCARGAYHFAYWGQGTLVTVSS VL: DIQMTQSPSSLSASVGDRVTITCQASQDISNYLNWYQQKPGKAPKLLIYDASNLETGVPSRFSGSGSGTDFTFTISSLQPEDIATYSCQHSDNLSITFGQGTRLEIKR",
    "RESULT NUMBER": 0.83
  }
]
